Test system: HT-29
Assay: Inhibition of growth of HT-29 cell line after 24+72 hours of exposure time with the compound dissolved in DMSO
Format: functional, cell-based
Details: Homo sapiens, HT-29, 72 h
Hi there, I'd appreciate the recorded IC50 for every entry that follows.
The figure you give is taken to be in µM; do not add the unit.

Asked: What measured IC50 goes with O=C1NC(=O)/C(=C/c2cccc(C(F)(F)F)c2)S1 ?
Given back: 71.7

Asked: What measured IC50 goes with CCCN1C(=O)/C(=C/c2cccc(OC)c2)S/C1=N/c1ccccc1 ?
Given back: 92.8

---

Hi there, I'd appreciate the recorded pIC50 for every entry that follows.
System: DLD-1
Assay: Inhibition of growth of DLD-1 cell line after 96 hours of exposure time with the compound dissolved in DMSO
Assay type: functional, cell-based
Details: Homo sapiens, DLD-1, 96 h
By convention, pIC50 is the negative base-10 log of a molar concentration.

Asked: What measured pIC50 goes with O=C1NC(=O)/C(=C/c2cccc(C(F)(F)F)c2)S1 ?
Given back: 4.75

Asked: What measured pIC50 goes with CCCN1C(=O)/C(=C/c2cccc(OC)c2)S/C1=N/c1ccccc1 ?
Given back: 4.88

---

Assay: Inhibition of growth of HCT116 cell line after 72+72 hours of exposure time with the compound dissolved in DMSO
Assay type: functional, cell-based
Details: Homo sapiens, HCT-116, 72 h
reported-endpoint: IC50 (µM)
The figure you give is taken to be in µM; do not add the unit.

Asked: What measured IC50 goes with O=C1NC(=O)/C(=C/c2cccc(C(F)(F)F)c2)S1 ?
Given back: 36.8
